- target: recombinant cynomolgus monkey CD3ε/δ heterodimer (cynomolgus monkey) (UniProt Q95LI5)
- Sequence (Q95LI5 22-117, stated change not applied, chain 1 of 2): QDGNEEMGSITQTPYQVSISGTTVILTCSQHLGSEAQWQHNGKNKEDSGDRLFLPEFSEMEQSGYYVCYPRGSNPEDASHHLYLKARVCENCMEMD
- Sequence (Q95LI8 22-105, stated change not applied, chain 2 of 2, further chain): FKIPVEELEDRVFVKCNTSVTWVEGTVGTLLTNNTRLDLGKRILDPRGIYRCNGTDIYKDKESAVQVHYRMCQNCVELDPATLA
- testSummary: ELISA, coated CD3ε/δ
propertyName: Absorbance (450 nm)
// print number alone

Could you tell me which Absorbance (450 nm) is on file for F15 (antibody, human IgG1, lambda, L234A L235A, V domains shown) VH: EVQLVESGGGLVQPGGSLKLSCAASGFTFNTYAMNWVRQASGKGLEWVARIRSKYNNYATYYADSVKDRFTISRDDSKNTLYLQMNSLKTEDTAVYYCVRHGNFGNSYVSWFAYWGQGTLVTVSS VL: QAVVTQEPSLTVSPGGTVTLTCRSSTGAVTTSNYANWVQQKPGQAPRGLIGGTNKRAPWTPARFSGSLLGGKAALTLSGAQPEDEAEYYCALWYSNLWVFGGGTKLTVLG ?
2.75

Please give the result for B13 (antibody, human IgG1, lambda, L234A L235A, V domains shown) VH: EVQLVESGGGLVQPGGSLKLSCAASGFTFNTYAMNWVRQASGKGLEWVGRIRSKYNNYATYYADSVKDRFTISRDDSKNTLYLQMNSLKTEDTAVYYCVRHGNFGNSYVSWFAYWGQGTLVTVSS VL: QAVVTQEPSLTVSPGGTVTLTCRSSTGAVTTSNYANWVQQKPGQAPRGLIYGTNKRAPWTPARFSGSLLGGKAALTLSGAQPEDEAEYYCALWYSNLWVFGGGTKLTVLG too.
0.156

Please give the result for E08 (antibody, human IgG1, lambda, L234A L235A, V domains shown) VH: EVQLVESGGGLVQPGGSLKLSCAASGFTFNTYAMNWVRQASGKGLEWVARIRSKYNNYATYYADSVKDRFTISRDDSKNTAYLQMNSLKTEDTAVYYCVRHGNFGNSYVSWFAYWGQGTLVTVSS VL: QAVVTQEPSLTVSPGGTVTLTCRSSTGAVTTSNYANWFQQKPGQAPRGLIGGTNKRAPWTPARFSGSLLGDKAALTLSGAQPEDEAEYYCALWYSNLWVFGGGTKLTVLG too.
0.099

Please give the result for C11 (antibody, human IgG1, lambda, L234A L235A, V domains shown) VH: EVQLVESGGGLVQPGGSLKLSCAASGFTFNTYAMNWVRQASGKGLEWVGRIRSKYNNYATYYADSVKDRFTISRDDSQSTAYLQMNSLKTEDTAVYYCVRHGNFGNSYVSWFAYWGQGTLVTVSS VL: QAVVTQEPSLTVSPGGTVTLTCRSSTGAVTTSNYANWVQQKPGQAPRTLIGGTNKRAPWTPARFSGSLLGGKAALTLSGAQPEDEAEYYCALWYSNLWVFGGGTKLTVLG too.
0.261

Please give the result for G09 (antibody, human IgG1, lambda, L234A L235A, V domains shown) VH: EVQLVESGGGLVQPGGSLKLSCAASGFTFNTYAMNWVRQASGKGLEWVARIRSKYNNYATYYADSVKDRFTISRDDSQSTAYLQMNSLKTEDTAVYYCVRHGNFGNSYVSWFAYWGQGTLVTVSS VL: QAVVTQEPSLTVSPGGTVTLTCRSSTGAVTTSNYANWVQQKPGQAPRTLIYGTNKRAPWTPARFSGSLLGGKAALTLSGAQPEDEAEYYCALWYSNLWVFGGGTKLTVLG too.
0.079
